# viability, T/C per entry
# Tested on: 186277-243-T-J2-PDC complex spheroids, viability
# Experiment: Anticancer human tumor 186277-243-T-J2-PDC patient-derived colon adenocarcinoma cell line growth inhibition [RAS]
# Applied Conditions: second compound 0.000949 µM; first compound 10 µM; active compounds read low
Attribute Measured: viability, T/C

{"columns": ["Molecule", "Attribute Measured", "Obs Value"],
 "data": [
  ["NC1c2ccccc2OC12CCN(c1cnc3c(N4CCCc5ncccc54)n[nH]c3n1)CC2 (configuration not stated) + CCn1c(-c2cccnc2C(C)OC)c2c3cc(ccc31)N1CCOC(CC(NC(=O)C(C(C)C)N(C)C(=O)C3(F)CCN(C(=O)C#CC(C)(C)N(C)C)CC3)C(=O)N3CCCC(N3)C(=O)OCC(C)(C)C2)C1", "viability, T/C", "70.3%"],
  ["CC(C)NCC(C(=O)N1CCN(c2ncnc3c2C(C)CC3O)CC1)c1ccc(Cl)cc1 (configuration not stated) + CCn1c(-c2cccnc2C(C)OC)c2c3cc(ccc31)N1CCOC(CC(NC(=O)C(C(C)C)N(C)C(=O)C3(F)CCN(C(=O)C#CC(C)(C)N(C)C)CC3)C(=O)N3CCCC(N3)C(=O)OCC(C)(C)C2)C1", "viability, T/C", "29.4%"]
]}

* * *

# Test system: 186277-243-T-J2-PDC complex spheroids, viability
# Experiment: Anticancer human tumor 186277-243-T-J2-PDC cell line growth inhibition [RAS];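 also: spheroids exposed to compounds for 7 days before viability read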
# Applied Conditions: second compound 0.316 µM; first compound 0.01 µM; active compounds read low
# Description: RAS pathway inhibitors in Combinations in Complex Spheroids A high-throughput screen of multi-cell type tumor spheroids was designed to identify active combinations of RAS pathway inhibitors and targeted small molecules. Complex spheroids include a stromal component modeled by human endothelial cells (HUVEC) and fibroblasts modeled by human mesenchymal stem cells (MSCs). […] Compounds. […] If the clinical Cmax for an agent had not been determined, the highest concentration tested was 10 microM. […]
Threshold 30%: viability, T/C strictly smaller gives true, otherwise false.

{"columns": ["Molecule", "Target Or System", "Cat"],
 "data": [
  ["CCN1CCN(Cc2ccc(Nc3ncc(F)c(-c4cc(F)c5nc(C)n(C(C)C)c5c4)n3)nc2)CC1 + C=CC(=O)N1CCN(c2nc(OCC3CCCN3C)nc3c(F)c(-c4nc(N)cc(C)c4C(F)(F)F)c(Cl)cc23)C(C)C1", "186277-243-T-J2-PDC complex spheroids, viability", "false"],
  ["C=CC(=O)N1CCN(c2nc(OCC3CCCN3C)nc3c(F)c(-c4nc(N)cc(C)c4C(F)(F)F)c(Cl)cc23)C(C)C1 (stereo not given) + C#Cc1c(F)ccc2cc(O)cc(-c3ncc4c(N5CC6CCC(C5)N6)nc(OCC56CCCN5CC(F)C6)nc4c3F)c12", "186277-243-T-J2-PDC complex spheroids, viability", "false"],
  ["CC(C)n1nc(-c2ccc3oc(N)nc3c2)c2c(N)ncnc21 + C=CC(=O)N1CCN(c2nc(OCC3CCCN3C)nc3c(F)c(-c4nc(N)cc(C)c4C(F)(F)F)c(Cl)cc23)C(C)C1", "186277-243-T-J2-PDC complex spheroids, viability", "false"],
  ["CCN1CCN(Cc2ccc(Nc3ncc(F)c(-c4cc(F)c5nc(C)n(C(C)C)c5c4)n3)nc2)CC1 + C#Cc1c(F)ccc2cc(O)cc(-c3ncc4c(N5CC6CCC(C5)N6)nc(OCC56CCCN5CC(F)C6)nc4c3F)c12", "186277-243-T-J2-PDC complex spheroids, viability", "true"],
  ["Nc1ccn(C2OC(CO)C(O)C2(F)F)c(=O)n1 (stereo not given) + C=CC(=O)N1CCN(c2nc(OCC3CCCN3C)nc3c(F)c(-c4nc(N)cc(C)c4C(F)(F)F)c(Cl)cc23)C(C)C1", "186277-243-T-J2-PDC complex spheroids, viability", "true"]
]}
